target: wildtype HIV-1 protease (Human immunodeficiency virus type 1 group M subtype B, UniProt P04585)
MEASUREMENT KIND: pIC50
pIC50 (log units): -log10 of the concentration in mol/L.

The compound listed as C[C@@H]1O[C@H](CCc2c(F)cccc2NC(=O)[C@@H](N)C(c2ccc(F)cc2)c2ccc(F)cc2)CN[C@@H]1COC(=O)N[C@H](C)C(F)(F)F has a reported pIC50 of 7.57

Record summary for COC(=O)N[C@H](C(=O)Nc1ccccc1CC[C@@H]1CN[C@H](COC(=O)NCc2ccc(F)cc2)[C@@H](CSc2nnc(-c3ccncc3)o2)O1)C(c1ccccc1)c1ccccc1 : reported pIC50 = 10.52

For record COC(=O)N[C@H](C(=O)Nc1ccccc1CC[C@@H]1CN[C@H](C)[C@@H](CSc2nc(C)c(C)o2)O1)C(c1ccccc1)c1ccccc1 the listed pIC50 is 7.67

# pIC50 of COC(=O)N[C@H](C(=O)Nc1ccccc1CC[C@@H]1CN[C@H](C)[C@@H](CS(=O)(=O)c2ccc(Cl)cc2)O1)C(c1ccccc1)c1ccccc1 = 6.12

pIC50 in this record for CC(C)[C@@H](NC(=O)OC[C@H]1NC[C@@H](CCc2c(F)cccc2NC(=O)[C@@H](N)C(c2ccc(F)cc2)c2ccc(F)cc2)O[C@H]1C)c1ccc(F)cc1 : 8.16

So, COC(=O)N[C@H](C(=O)Nc1ccccc1CC[C@@H]1CN[C@H](C)[C@@H](CSc2nc[nH]n2)O1)C(c1ccccc1)c1ccccc1 ? Its pIC50 was 7.23

Data point: COC(=O)N[C@H](C(=O)Nc1ccccc1CC[C@@H]1CN[C@H](COC(=O)NCC(F)(F)F)[C@@H](CO)O1)C(c1ccccc1)c1ccccc1 ; pIC50 = 7.19

The compound listed as COC(=O)N[C@H](C(=O)Nc1ccccc1CC[C@@H]1CN[C@H](C)[C@@H](CSc2ccc(C)c(C)c2)O1)C(c1ccccc1)c1ccccc1 shows pIC50 equal to 7.93

The recorded pIC50 for C[C@@H]1O[C@H](CCc2c(F)cncc2NC(=O)[C@@H](N)C(c2ccc(F)cc2)c2ccc(F)cc2)CN[C@@H]1COC(N)=O is 7.60

The recorded pIC50 for COC(=O)N[C@H](C(=O)Nc1ccccc1CC[C@@H]1CN[C@H](C)[C@@H](CSc2cc(N3CCN(C)CC3)ncn2)O1)C(c1ccccc1)c1ccccc1 is 6.38

C[C@@H]1O[C@H](CCc2c(F)cncc2NC(=O)[C@@H](N)C(c2ccc(F)cc2)c2ccc(F)cc2)CN[C@@H]1COC(=O)NCC(F)(F)F yielded pIC50 of 7.52

pIC50 reported for this compound COC(=O)N[C@H](C(=O)Nc1ccccc1CC[C@@H]1CN[C@H](C)[C@@H](CSc2ncccc2Cl)O1)C(c1ccccc1)c1ccccc1 : 8.12
